system name: EGFR[T790M/C797S/d746-750] (Homo sapiens, UniProt P00533, C797S/DEL746-750/T790M)
Construct: purchased Carna Bio
Sequence (P00533 with tags, fused parts or gaps DEL746-750/T790M/C797S limits assumed): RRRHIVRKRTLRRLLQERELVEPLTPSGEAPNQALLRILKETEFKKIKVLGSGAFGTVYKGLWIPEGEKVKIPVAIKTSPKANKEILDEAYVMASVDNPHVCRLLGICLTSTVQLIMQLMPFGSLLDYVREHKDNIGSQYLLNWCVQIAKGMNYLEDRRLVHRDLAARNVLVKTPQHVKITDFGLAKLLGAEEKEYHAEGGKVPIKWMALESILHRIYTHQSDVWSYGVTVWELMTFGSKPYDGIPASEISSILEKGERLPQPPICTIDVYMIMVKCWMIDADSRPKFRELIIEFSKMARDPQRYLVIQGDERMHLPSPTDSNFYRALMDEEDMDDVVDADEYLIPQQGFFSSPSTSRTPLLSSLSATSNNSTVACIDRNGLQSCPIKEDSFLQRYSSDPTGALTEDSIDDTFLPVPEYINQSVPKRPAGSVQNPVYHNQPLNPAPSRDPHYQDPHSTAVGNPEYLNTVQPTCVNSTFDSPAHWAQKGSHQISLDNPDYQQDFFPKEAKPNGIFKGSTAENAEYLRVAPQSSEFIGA
test method notes: Inhibition of EGFR[T790M/C797S/d746-750] biochemical enzymatic activity (HTRF)
condition info: EGFR T790M-C797S-Del19, 1 mM ATP, 1 h, room temperature, read-out: IC50 (nM) @T790M - C797S - Del19
value type: IC50 (nM)

Cc1cc2cc(n1)-c1cnn(C)c1OCCN1CC3CCC(CC3)(C1)n1c(nc3ccc(N4CCOCC4)cc31)NC2=O : 20

P. C[C@@H]1CCCOc2c(cnn2C)-c2cc(cn(C)c2=O)C(=O)Nc2nc3ccc(N4CCC(N5CCOCC5)C4)cc3n2C1 (stereo partly drawn)
Q. CN1CCCC12CN(c1ccc3nc4n(c3c1)C13CCC(CN(CCOc5c(cnn5C)-c5cc(cn(C)c5=O)C(=O)N4)C1)C3)C2 (single isomer, unassigned) [Example A76A]
R. CN1CCC12CCN(c1ccc3nc4n(c3c1)C13CCC(CN(CCOc5c(cnn5C)-c5cc(cn(C)c5=O)C(=O)N4)C1)C3)CC2 (single isomer, unassigned) [Example A67B]
S. CN(C)CCN(C)c1ccc2nc3n(c2c1)C12CCC(CN(CCOc4c(cnn4C)-c4cc(cn(C)c4=O)C(=O)N3)C1)C2 (single isomer, unassigned) [Example A85B]
Hey, quick one: sort these by IC50, low to high? Respond with an ordered listing of the labels, as requested.
R, S, P, Q
(R: 1.2 nM, S: 2.2 nM, P: 21 nM, Q: 4860 nM)
